- targetDesc: endogenously expressed human MSR1 on PMA-treated THP-1 cells (human) (UniProt P21757)
- Sequence (P21757 whole entry): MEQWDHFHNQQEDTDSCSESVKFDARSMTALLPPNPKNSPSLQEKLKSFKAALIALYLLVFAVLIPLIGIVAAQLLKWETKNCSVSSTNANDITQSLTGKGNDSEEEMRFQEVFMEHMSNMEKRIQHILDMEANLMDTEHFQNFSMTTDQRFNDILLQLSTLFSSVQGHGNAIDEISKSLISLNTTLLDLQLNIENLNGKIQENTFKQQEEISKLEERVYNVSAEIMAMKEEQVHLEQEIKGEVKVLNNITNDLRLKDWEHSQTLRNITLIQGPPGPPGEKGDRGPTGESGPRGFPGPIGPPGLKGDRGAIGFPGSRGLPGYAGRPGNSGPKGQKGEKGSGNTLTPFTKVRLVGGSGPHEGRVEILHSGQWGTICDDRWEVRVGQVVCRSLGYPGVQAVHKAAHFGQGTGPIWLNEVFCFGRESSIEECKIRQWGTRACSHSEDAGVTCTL
- assayExplanation: ECL cell binding, PMA-treated THP-1 cells, 11 nM
quantityMeasured: ratio of binding signal (RLU) to isotype control (fold)
Your answer is read as fold, so omit the unit and give the number.

Some binders with known ratio of binding signal (RLU) to isotype control results, for comparison:
- binder: "H1H27754P-N297Q (antibody, human IgG1, V domains shown) VH: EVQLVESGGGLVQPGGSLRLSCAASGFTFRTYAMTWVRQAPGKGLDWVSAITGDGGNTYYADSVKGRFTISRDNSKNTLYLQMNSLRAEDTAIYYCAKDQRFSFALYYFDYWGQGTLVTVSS VL: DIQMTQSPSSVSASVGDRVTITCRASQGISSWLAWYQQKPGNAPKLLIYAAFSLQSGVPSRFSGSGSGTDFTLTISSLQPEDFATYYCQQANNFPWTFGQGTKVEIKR"
  reportedMeasurement: 66
- binder: "H2aM25690N (antibody, mouse IgG2a, V domains shown) VH: EVQLLESGGGLVQPGGSLRLSCAASGFTFSNYAMTWVRQAPGTGLEWVSAISGRGSNTYYTDSVKGRFTISRDNSKNMLYLQMNSLRAEDTASYYCAKDRFTTVGNWFDPWGQGTLVTVSS VL: DIQMTQSPSSLSASVGDRVTITCRASQSISSYLNWYQQKPGKAPKLLIYAASSLQNGVPSRFSGSGSGTDFTLTISSLQPEDFATYYCQQSYSSLPITFGQGTRLDIKR"
  reportedMeasurement: 25
- binder: "H2aM21229N (antibody, mouse IgG2a, V domains shown) VH: EVQLVESGGGLVKPGGSLRLSCAASGFTFSRYSMNWVRQAPGKGLEWVSSISSSSSYIYYGDTVKGRFTISRDNAKKSLYLQMNSLRAEDTAVYYCVRDRGQLVLYFDYWGQGTLVTVSS VL: DIQMTQSPASLSTSIRDRVTITCRASLSISSFLNWFQQRPGKAPKLLIYVASNLQSGVPSRFSDSGSGTDFTLTISSLQPEDFATYYCQQNYSTPPITFGQGTRLEIK"
  reportedMeasurement: 56

Could you now look at the following binder, please?
Q: # input binder: H1H21231N (antibody, human IgG1, V domains shown) VH: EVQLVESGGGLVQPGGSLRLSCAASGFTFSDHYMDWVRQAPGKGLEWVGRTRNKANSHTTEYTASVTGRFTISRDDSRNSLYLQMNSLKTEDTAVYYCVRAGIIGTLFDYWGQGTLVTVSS VL: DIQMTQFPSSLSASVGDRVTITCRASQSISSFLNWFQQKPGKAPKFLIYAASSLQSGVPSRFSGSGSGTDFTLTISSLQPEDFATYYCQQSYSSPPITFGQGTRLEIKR ; wanted: its ratio of binding signal (RLU) to isotype control
Ans: 42

Origin of values: patent US20190367631A1
